IC50 reference
Test system: HeLa (cervical adenocarcinoma)
Test: Cell viability assay (Cell Titer-Glo), HeLa
Type: cell-based, human
Conditions: cytotoxicity after 72 h of compound treatment, Cell Titer-Glo (ATP levels); read-out: IC50 (μM) HeLa

// solved cases for IC50 follow
>>> observed_measurement("CCC(=O)N1CC[C@]23c4ccccc4N[C@H]4N(C)c5cccc6c5[C@]42CCN([C@H]6[C@@H]2OC2(C)C)[C@H]13 [(−)-7, (−)-communesin G]")
"> 125 µM"
>>> observed_measurement("CCCC(=O)N1CC[C@]23c4ccccc4N[C@H]4N(C)c5cccc6c5[C@]42CCN([C@H]6[C@@H]2OC2(C)C)[C@H]13 [(−)-8, (−)-communesin H]")
"82 µM"
>>> observed_measurement("CCC[C@H](O)CC(=O)N1CC[C@@]23c4ccccc4N[C@@H]4N(C)c5cccc6c5[C@@]42CCN([C@@H]13)[C@@H]6[C@H]1OC1(C)C [(−)-10, (−)-communesin I]")
"120 µM"

With those in mind, consider the next compound.
Prompt line: Sample CC(=O)N1CC[C@@]23c4ccccc4N[C@@H]4N(C)c5cccc6c5[C@@]42CCN([C@@H]6C=C(C)C)[C@@H]13 [(−)-1, (−)-communesin F] — what was its IC50?
Response line: 115 µM
